Reported pIC50, UniProtKB P00533.
Sequence (P00533 whole entry): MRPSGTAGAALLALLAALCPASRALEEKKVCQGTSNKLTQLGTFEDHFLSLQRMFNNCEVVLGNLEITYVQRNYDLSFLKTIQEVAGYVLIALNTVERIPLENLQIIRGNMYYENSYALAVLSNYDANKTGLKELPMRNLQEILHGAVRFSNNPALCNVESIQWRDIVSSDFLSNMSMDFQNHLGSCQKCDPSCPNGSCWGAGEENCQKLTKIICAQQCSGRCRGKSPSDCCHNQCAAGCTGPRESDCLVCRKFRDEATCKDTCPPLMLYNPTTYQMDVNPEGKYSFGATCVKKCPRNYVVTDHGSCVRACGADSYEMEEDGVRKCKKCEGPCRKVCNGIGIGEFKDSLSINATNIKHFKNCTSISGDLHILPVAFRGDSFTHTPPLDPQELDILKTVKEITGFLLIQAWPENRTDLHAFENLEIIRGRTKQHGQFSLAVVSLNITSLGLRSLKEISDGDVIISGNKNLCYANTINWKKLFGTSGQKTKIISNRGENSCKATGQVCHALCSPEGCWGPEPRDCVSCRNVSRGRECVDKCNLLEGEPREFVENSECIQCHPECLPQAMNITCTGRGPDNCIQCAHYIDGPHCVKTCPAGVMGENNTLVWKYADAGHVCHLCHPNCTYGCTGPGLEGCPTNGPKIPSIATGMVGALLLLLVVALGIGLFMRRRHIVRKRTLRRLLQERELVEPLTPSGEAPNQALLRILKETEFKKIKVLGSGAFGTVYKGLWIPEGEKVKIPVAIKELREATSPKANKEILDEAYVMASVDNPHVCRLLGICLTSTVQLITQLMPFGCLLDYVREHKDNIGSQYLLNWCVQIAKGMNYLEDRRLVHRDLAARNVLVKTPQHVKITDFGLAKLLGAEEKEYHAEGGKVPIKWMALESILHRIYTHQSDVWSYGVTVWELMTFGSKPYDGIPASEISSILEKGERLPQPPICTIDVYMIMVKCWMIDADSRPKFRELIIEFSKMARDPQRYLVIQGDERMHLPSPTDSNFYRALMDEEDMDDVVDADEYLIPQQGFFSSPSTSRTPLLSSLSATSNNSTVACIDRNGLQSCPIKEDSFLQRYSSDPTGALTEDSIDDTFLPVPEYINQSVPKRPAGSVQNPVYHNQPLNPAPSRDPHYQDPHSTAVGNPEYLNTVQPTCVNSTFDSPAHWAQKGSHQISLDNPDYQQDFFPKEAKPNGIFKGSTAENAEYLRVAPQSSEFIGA
// field semantics: pIC50 = negative decimal log of concentration (mol/L)

CCCC(=O)Nc1cc2c(Oc3ccc(NC(=O)n4c(=O)c(-c5ccccc5)c(C)n4C)cc3F)cccc2cc1OC = 5.38
C=CC(=O)Nc1cc2c(Oc3ccc(NC(=O)c4sc(-c5ccccc5)nc4C)cc3F)cccc2cc1OC = 6.76
C=CC(=O)Nc1cc2c(Oc3ccc(NC(=O)CCCc4ccccc4)cc3F)ncnc2cc1OC = 6.41
C=CC(=O)Nc1cc2c(Oc3ccc(NC(=O)NCCc4ccc(OC)c(OC)c4)cc3F)ncnc2cc1OC = 5.63
CCCC(=O)Nc1cc2c(Oc3ccc(NC(=O)CCCc4ccc(OC)cc4)cc3F)ncnc2cc1OC = 5.12

State the recorded pIC50 for this entry: C=CC(=O)Nc1cc2c(Oc3ccc(NC(=O)CCCc4ccc(OC)cc4)cc3F)ncnc2cc1OC
6.25
